The reader will find reported IC50 values listed item by item below.
Target: CCK receptor (brain, cerebral cortex) (Cavia porcellus)
Construct: Cerebral cortex was dissected and used as a receptor source; from tissue; host or cells: guinea pig cerebral cortex membranes (male Hartley)
Assay: biochemical
Type: binding, Male Hartley guinea pigs
Conditions: IC50 ^125 I-CCK Brain, guinea pig cerebral cortex, ^125 I-CCK-33, 25° C., 2 hours
Procedure: 2. CCK Recepto Binding (Brain) CCK-33 was radiolabeled and the binding was Performed according to the description for the Pancreas method with modifications according to Saito et al., J. Neurochem. Cerebral cortex was dissected and used as a receptor source. Each gram of fresh guinea pig brain tissue was homogenized in 10 ml of Tris/Trizma buffer with a Brinkman polytron PT-10. […] The supernatant was aspirated and discarded, pellets were counted with a Beckman gamma 5000.
# unit: µM | format: bare number

In the examples that follow, each entry is paired with its recorded IC50.
compound="Cc1ccc(NC(=O)NC2N=C(c3ccccc3)c3ccccc3N(C)C2=O)cc1 (stereo not shown)" system_tested="CCK receptor (brain, cerebral cortex) (Cavia porcellus)" result_value=0.006
compound="O=C(NCC1CNc2ccccc2C(c2ccccc2F)=N1)OCc1ccccc1 (racemic)" system_tested="CCK receptor (brain, cerebral cortex) (Cavia porcellus)" result_value=100
compound="CN1C(=O)C(NC(=O)NC(C)(C)C)N=C(c2ccccc2)c2ccccc21 (stereo not shown)" system_tested="CCK receptor (brain, cerebral cortex) (Cavia porcellus)" result_value=38
compound="O=C(CCc1c[nH]c2ccccc12)NC1N=C(c2ccccc2)c2ccccc2NC1=O (racemic)" system_tested="CCK receptor (brain, cerebral cortex) (Cavia porcellus)" result_value=100

Here is another compound to look at.
Task item: Need IC50, item "CN1C(=O)[C@@H](NC(=O)c2cccc(Br)c2)N=C(c2ccccc2F)c2ccccc21"
Reply: 3.5

---

The reader will find reported IC50 values listed item by item below.
Molecular target: CCK receptor (brain, cerebral cortex) (Cavia porcellus, UniProt H0VZC5)
Construct: Cerebral cortex was dissected and used as a receptor source; from tissue; host or cells: guinea pig cerebral cortex membranes (male Hartley)
Sequence (H0VZC5 1-426): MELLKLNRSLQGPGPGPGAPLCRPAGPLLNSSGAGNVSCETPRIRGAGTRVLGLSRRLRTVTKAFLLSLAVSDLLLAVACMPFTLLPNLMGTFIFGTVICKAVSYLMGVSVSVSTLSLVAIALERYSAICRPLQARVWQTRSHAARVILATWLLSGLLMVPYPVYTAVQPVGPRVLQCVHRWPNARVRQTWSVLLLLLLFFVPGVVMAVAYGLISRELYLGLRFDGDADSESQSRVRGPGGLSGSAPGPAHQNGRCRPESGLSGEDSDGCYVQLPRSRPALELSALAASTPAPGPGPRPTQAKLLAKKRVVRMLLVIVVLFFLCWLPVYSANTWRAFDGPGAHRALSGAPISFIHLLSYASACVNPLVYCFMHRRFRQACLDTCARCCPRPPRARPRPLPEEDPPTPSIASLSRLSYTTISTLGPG
Assay: biochemical
Type: binding, Male Hartley guinea pigs
Settings: IC50 ^125 I-CCK Brain, guinea pig cerebral cortex, ^125 I-CCK-33, 25° C., 2 hours
Protocol: 2. CCK Recepto Binding (Brain) CCK-33 was radiolabeled and the binding was Performed according to the description for the Pancreas method with modifications according to Saito et al., J. Neurochem. Cerebral cortex was dissected and used as a receptor source. Each gram of fresh guinea pig brain tissue was homogenized in 10 ml of Tris/Trizma buffer with a Brinkman polytron PT-10. […] The supernatant was aspirated and discarded, pellets were counted with a Beckman gamma 5000.
# unit: µM | format: bare number

molecule=O=C(N[C@H]1N=C(c2ccccc2)c2ccccc2NC1=O)c1cc2ccccc2[nH]1 property_name=IC50 readout_unit=µM result_value=1.3
molecule=CN1C(=O)[C@@H](NC(=O)c2ccccc2I)N=C(c2ccccc2F)c2ccccc21 property_name=IC50 readout_unit=µM result_value=45
molecule="CN1C(=O)C(NC(=O)c2cc3ccccc3n2C)N=C(c2ccccc2F)c2ccccc21 (racemic) [Example 81b]" property_name=IC50 readout_unit=µM result_value=1
molecule=CN1C(=O)[C@H](NC(=O)c2ccc(Cl)cc2)N=C(c2ccccc2F)c2ccccc21 property_name=IC50 readout_unit=µM result_value=11
molecule="O=C(NC1N=C(c2ccccc2F)c2ccccc2NC1=O)c1cc2cc(Br)ccc2[nH]1 (racemic)" property_name=IC50 readout_unit=µM result_value=50

Task item: Need IC50, item CN(C(=O)c1cc2ccccc2[nH]1)C1N=C(c2ccccc2)c2ccccc2NC1=O (racemic)
Reply: 33

Task item: Need IC50, item COc1ccc(NC(=O)NC2N=C(c3ccccc3)c3ccccc3N(C)C2=O)cc1 (stereo not shown)
Reply: 0.02

---

Target: CCK receptor (pancreas) (Rattus norvegicus, UniProt P30551)
Construct: The whole pancreas was dissected free of fat tissue and was homogenized; from tissue; host or cells: rat pancreas membranes (Sprague-Dawley)
Sequence (P30551 whole entry): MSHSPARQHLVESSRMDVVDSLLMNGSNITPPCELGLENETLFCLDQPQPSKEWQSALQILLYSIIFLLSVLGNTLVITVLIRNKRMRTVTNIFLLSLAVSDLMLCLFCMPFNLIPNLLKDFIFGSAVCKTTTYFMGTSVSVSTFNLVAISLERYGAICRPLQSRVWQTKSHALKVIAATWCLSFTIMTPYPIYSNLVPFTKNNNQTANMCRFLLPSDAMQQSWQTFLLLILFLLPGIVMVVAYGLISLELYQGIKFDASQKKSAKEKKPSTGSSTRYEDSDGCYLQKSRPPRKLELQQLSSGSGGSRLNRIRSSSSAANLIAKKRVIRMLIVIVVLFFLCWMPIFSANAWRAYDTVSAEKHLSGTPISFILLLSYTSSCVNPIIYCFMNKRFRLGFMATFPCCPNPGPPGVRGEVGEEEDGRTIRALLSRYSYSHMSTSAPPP
Test: CCK Receptor Binding (Pancreas): inhibition of ^125 I-CCK-33 binding
Parameters: species or system Male Sprague-Dawley rats
Settings: IC50 ^125 I-CCK Pancreas, rat pancreas membranes, ^125 I-CCK-33, 37° C., 30 minutes
The reader will find reported IC50 values listed item by item below.
# unit: µM | format: bare number

In the examples that follow, each entry is paired with its recorded IC50.
compound=CN1C(=O)[C@@H](Cc2c[nH]c3ccccc23)N=C(c2ccccc2)c2ccccc21 property_name=IC50 result_value=0.3
compound=S=C1Nc2ccc(Cl)cc2C(c2ccccc2)=N[C@@H]1Cc1c[nH]c2ccccc12 property_name=IC50 result_value=4.5

Task item: Notebook entry, CCK receptor (pancreas) (Rattus norvegicus, UniProt P30551) assay: IC50 of O=C(OC1N=C(c2ccccc2F)c2ccccc2NC1=O)c1ccc(Cl)cc1 (racemic) = ?
Reply: 4.4

Task item: Notebook entry, CCK receptor (pancreas) (Rattus norvegicus, UniProt P30551) assay: IC50 of "O=C1Nc2ccccc2C(c2ccccc2)=N[C@@H]1Cc1c[nH]c2ccccc12" = ?
Reply: 1.2

Task item: Notebook entry, CCK receptor (pancreas) (Rattus norvegicus, UniProt P30551) assay: IC50 of "O=C1[C@@H](Cc2c[nH]c3ccccc23)N=C(c2ccccc2F)c2ccccc2N1CC(F)(F)F" = ?
Reply: 3.6

Task item: Notebook entry, CCK receptor (pancreas) (Rattus norvegicus, UniProt P30551) assay: IC50 of "O=C1Nc2ccc(Cl)cc2C(c2ccccc2Cl)=N[C@@H]1Cc1c[nH]c2ccccc12" = ?
Reply: 5

Task item: Notebook entry, CCK receptor (pancreas) (Rattus norvegicus, UniProt P30551) assay: IC50 of "CN1C(=O)[C@@H](NC(=O)c2ccc(I)cc2)N=C(c2ccccc2F)c2ccccc21" = ?
Reply: 0.0034

Task item: Notebook entry, CCK receptor (pancreas) (Rattus norvegicus, UniProt P30551) assay: IC50 of CC(C)CC(NC(=O)OC(C)(C)C)C(=O)N1CC(CC2N=C(c3ccccc3)c3ccccc3NC2=O)c2ccccc21 (centres unmarked) = ?
Reply: 4.7

Task item: Notebook entry, CCK receptor (pancreas) (Rattus norvegicus, UniProt P30551) assay: IC50 of O=C(NC1N=C(c2ccccc2F)c2ccccc2NC1=S)c1ccc(Cl)cc1 (racemic) = ?
Reply: 0.016

Task item: Notebook entry, CCK receptor (pancreas) (Rattus norvegicus, UniProt P30551) assay: IC50 of CN1C(=O)C(C(O)c2cn(C)c3ccccc23)N=C(c2ccccc2)c2ccccc21 (racemic) [Example 50b] = ?
Reply: 100

Task item: Notebook entry, CCK receptor (pancreas) (Rattus norvegicus, UniProt P30551) assay: IC50 of "NC(=O)CN1C(=O)[C@@H](Cc2c[nH]c3ccccc23)N=C(c2ccccc2F)c2ccccc21" = ?
Reply: 2.1

Task item: Notebook entry, CCK receptor (pancreas) (Rattus norvegicus, UniProt P30551) assay: IC50 of CN1C(=O)C(NC(=O)c2ccc(C(F)(F)F)cc2)N=C(c2ccccc2F)c2ccccc21 (centres unmarked) = ?
Reply: 0.0026

Task item: Notebook entry, CCK receptor (pancreas) (Rattus norvegicus, UniProt P30551) assay: IC50 of CC(C)(C)OC(=O)N[C@@H](Cc1c[nH]c2ccccc12)C(=O)NC1N=C(c2ccccc2)c2ccccc2NC1=O (mixture of isomers) = ?
Reply: 6

---

Target: CCK receptor (brain, cerebral cortex) (Cavia porcellus)
Construct: Cerebral cortex was dissected and used as a receptor source; from tissue; host or cells: guinea pig cerebral cortex membranes (male Hartley)
Test: biochemical
Format: binding, Male Hartley guinea pigs
Conditions: guinea pig cerebral cortex, ^125 I-CCK-33, 25° C., 2 hours; read-out: IC50 ^125 I-CCK Brain
pIC50: −log10 of the molar value.
Respond with 1.0 for pIC50 values of 6 and above, 0.0 for values below.

compound=CN1C(=O)[C@@H](NC(=O)c2ccc(C(C)(C)C)cc2)N=C(c2ccccc2F)c2ccccc21 label=0.0

Task item: Determine whether measured pIC50 meets or exceeds 6 for CN1C(=O)C(NC(=O)Nc2ccc(F)cc2)N=C(c2ccccc2)c2ccccc21 (stereo not shown)
Reply: 1.0

Task item: Determine whether measured pIC50 meets or exceeds 6 for CN1C(=O)C(O)(C(=O)c2ccsc2)N=C(c2ccccc2)c2ccccc21 (racemic) [Example 53a]
Reply: 0.0

Task item: Determine whether measured pIC50 meets or exceeds 6 for CC1=C(C(=O)NC2N=C(c3ccccc3F)c3ccccc3NC2=O)Cc2ccccc21 (racemic)
Reply: 0.0

Task item: Determine whether measured pIC50 meets or exceeds 6 for COc1cccc(NC(=O)NC2N=C(c3ccccc3)c3cccc(C)c3NC2=O)c1 (stereo not shown)
Reply: 1.0

Task item: Determine whether measured pIC50 meets or exceeds 6 for CC(=O)N1C(c2ccccc2F)c2ccccc2N(C)C(=O)[C@H]1Cc1cn(C)c2ccccc12 (stereo partly shown) [Example 27b]
Reply: 0.0

Task item: Determine whether measured pIC50 meets or exceeds 6 for O=C(Cc1ccc(Cl)cc1)NC1N=C(c2ccccc2)c2ccccc2NC1=O (stereo not shown)
Reply: 0.0

Task item: Determine whether measured pIC50 meets or exceeds 6 for O=C(c1ccccc1F)c1ccccc1NC(=O)C(CN1C(=O)c2ccccc2C1=O)N1C(=O)c2ccccc2C1=O (racemic)
Reply: 0.0

Values compiled from patent US4820834A.
